- Test system: HepG2
- assayExplanation: cytotoxicity call (relative viability < 0.9)
- particulars: 10 µM
Among all 39,000 compounds or so, about 3,300 (8.5%) were called active. The sample as a whole holds a higher share of actives than the screen did.
# valid calls are TRUE for active, FALSE for inactive; nothing else

{"molecule": "CCC(=O)OC1CCC2C3CCC4=CC(=O)CCC4(C)C3CCC12C (stereo not drawn)", "classLabel": "FALSE"}
{"molecule": "CN1C[C@H]2CN[C@H]2C1", "classLabel": "FALSE"}
{"molecule": "COCC(=O)N1[C@@H]2Cn3c(ccc(C4=CCCC4)c3=O)[C@H]1[C@@H](C(=O)OC)[C@@H]2CO", "classLabel": "FALSE"}
{"molecule": "Cc1ccc2c(CCN)c(C)n(C)c2c1", "classLabel": "TRUE"}
{"molecule": "CCC1(O)C(=O)OCc2c1cc1n(c2=O)Cc2cc3ccccc3nc2-1 (stereo not drawn)", "classLabel": "TRUE"}
{"molecule": "CCC(N)C(O)c1ccc(O)c(O)c1.Cl (stereo not drawn)", "classLabel": "TRUE"}
{"molecule": "CN(C)[C@@H]1C(=O)C(C(N)=O)=C(O)[C@@]2(O)C(O)=C3C(=O)c4c(O)cccc4[C@](C)(O)[C@H]3C[C@@H]12", "classLabel": "FALSE"}
{"molecule": "C[C@@H]1C(=O)NC[C@H]2CN(CC3CC3)C[C@@H]21", "classLabel": "FALSE"}
{"molecule": "C[C@@H](N)Cc1ccc2occc2c1", "classLabel": "FALSE"}
{"molecule": "O=c1[nH]c2ccccc2n1C1CCN(Cc2ccc(-c3nc4cc5[nH]cnc5cc4nc3-c3ccccc3)cc2)CC1", "classLabel": "TRUE"}

Req: Call for entry CC=Cc1ccc2c(c1)OCO2 :
Resp: FALSE

Req: Call for entry OC[C@@H](O)Cc1ccc2c(c1)OCO2 :
Resp: FALSE

Req: Call for entry CNC(=O)CN1CCOCC12CCN(c1cc(OC)ncn1)CC2 :
Resp: FALSE

Req: Call for entry CCS(=O)(=O)N1C[C@@H]2CCN[C@@H]2C1 :
Resp: FALSE

Req: Call for entry NCCc1c[nH]c2ccc(C(N)=O)cc12 :
Resp: FALSE

Req: Call for entry COC(=O)C[C@@H]1CC[C@H]2NC[C@H](O)COC[C@@H]2O1 :
Resp: FALSE

###

- System: HepG2
- assayExplanation: cytotoxicity call (relative viability < 0.9)
- particulars: 10 µM
Screen size: about 39,000 compounds; about 3,300 (8.5%) were called active. This excerpt belongs to a sample that is enriched for actives.
# valid calls are active, inactive; nothing else

Below are worked cases with known answers.
{"molecule": "O=C1C2CCN(CC2)C1(CO)CO", "classLabel": "inactive"}
{"molecule": "C[C@H](O)[C@]12[C@@H]3CC=C[C@H]1N2CC3 (stereo partly specified)", "classLabel": "inactive"}
{"molecule": "COCCCNC(=O)C1[C@@H]2CC[C@H]1CNC2 (stereo partly specified)", "classLabel": "inactive"}

Req: Call for entry CNC[C@@H](O)c1ccc(O)c(OC)c1 :
Resp: inactive

Req: Call for entry Oc1cc2c(cc1O)CNCC2 :
Resp: inactive

Req: Call for entry O=[N+]([O-])OC1COC2C(O)COC12 (stereo unspecified) :
Resp: inactive

Req: Call for entry COC(=O)C[C@@H](CN)c1ccc(Cl)cc1 :
Resp: inactive

Req: Call for entry NCC(=O)Nc1ccc(Br)cc1C(=O)c1ccccc1 :
Resp: inactive

Req: Call for entry CC(=O)N1CCCC[C@]12CCNC2 :
Resp: inactive

Req: Call for entry O=c1[nH]c2ccccc2n1CCCN1CCC(n2c(=O)[nH]c3cc(Cl)ccc32)CC1 :
Resp: inactive

Req: Call for entry CCCCC[C@H]1C(=O)O[C@H](C)[C@H](NC(=O)c2cccc(NC=O)c2O)C(=O)O[C@@H](C)[C@@H]1OC(=O)CC(C)C :
Resp: active

###

- System: HepG2
- assayExplanation: cytotoxicity call (relative viability < 0.9)
- particulars: 10 µM
Hit rate of the full screen: of about 39,000 compounds, about 3,300 (8.5%) were called active. Only a selection was taken, and actives are over-represented in it overall.
# valid calls are active, inactive; nothing else

{"compound": "O[C@@H]1[C@@H]2C[C@H]3[C@H]1N[C@@H]1C[C@@H]2[C@@H]3[C@H]1O", "testedTarget": "HepG2", "classLabel": "inactive"}

Req: Call for entry COC1C(O)C(C)OC(OC2CCC3(C)C4CCC5(C)C(C6=CC(=O)OC6)CCC5(O)C4CCC3(O)C2)C1O (configuration not stated) :
Resp: inactive

Req: Call for entry NC1(c2ccccc2F)CCCC1 :
Resp: inactive

Req: Call for entry CN1C(=O)/C(=C/c2cn(CC(=O)N3CCOCC3)c3ccccc23)C(=O)NC1=S :
Resp: inactive

Req: Call for entry Nc1nnns1 :
Resp: inactive

Req: Call for entry C#CC1(O)C=CC2C3CCC4=CC(=O)CCC4C3CCC21CC (configuration not stated) :
Resp: inactive

###

- Tested on: HepG2
- assayExplanation: cytotoxicity call (relative viability < 0.9)
- particulars: 10 µM
Hit rate of the full screen: of about 39,000 compounds, about 3,300 (8.5%) were called active. This excerpt belongs to a sample that is enriched for actives.
# valid calls are active, inactive; nothing else

Below are worked cases with known answers.
{"molecule": "COC(C)(C)CCCC(C)CC=CC(C)=CC(=O)OC(C)C (stereo not drawn)", "classLabel": "inactive"}
{"molecule": "Cc1cc(O)c2c(=O)c3c(O)cc(O)c4c5c(O)cc(O)c6c(=O)c7c(O)cc(C)c8c1c2c(c34)c(c78)c65", "classLabel": "active"}

Lab note: next molecule to report on.
Req: Call for entry CC1CC(C)C(=O)C(C(O)CC2CC(=O)NC(=O)C2)C1 (stereo not drawn) :
Resp: active

###

- Test system: HepG2
- assayExplanation: cytotoxicity call (relative viability < 0.9)
- particulars: 10 µM
The whole screen tested about 39,000 compounds, of which about 3,300 (8.5%) were called active. For the sample, actives were picked, then their nearest neighbours and some compounds at random.
# valid calls are true (active), false (inactive); nothing else

Req: Call for entry NCCc1ccncc1 :
Resp: false

Req: Call for entry C1CCC(NC2CCCCC2)CC1 :
Resp: false

Req: Call for entry COc1cc(OC)c(OC)cc1C=O :
Resp: true

Req: Call for entry c1ccc2cc3c(cc2c1)-c1cccc2cccc-3c12 :
Resp: true

Req: Call for entry C[C@@H](O)CN1C[C@H]2C[C@@H](C1)c1cccc(=O)n1C2 :
Resp: false

###

- Test system: HepG2
- assayExplanation: cytotoxicity call (relative viability < 0.9)
- particulars: 10 µM
The whole screen tested about 39,000 compounds, of which about 3,300 (8.5%) were called active. The entries come from a sample that favours actives as a whole.
# valid calls are y (active), n (inactive); nothing else

{"compound": "CN1[C@H](CO)[C@H]2c3ccccc3NC[C@H]21", "classLabel": "n"}

Req: Call for entry COc1cc2c(cc1OC)C1C(=O)c3ccc4oc(C(C)C)cc4c3OC1CO2 (stereo not given) :
Resp: y

Req: Call for entry N#CCCN.O=C(O)C=CC(=O)O :
Resp: n

Req: Call for entry CS(=O)(=O)c1ccc(C(=O)C2C(=O)CCCC2=O)c([N+](=O)[O-])c1 :
Resp: n

Req: Call for entry CC1CCC2C(C)C(=O)OC3OC4(C)CCC1C32OO4 (stereo not given) :
Resp: n

Req: Call for entry C[C@@H]1CN([C@@H](C)CO)C(=O)CCCn2nncc2CO[C@@H]1CN(C)C(=O)Oc1ccc2ccccc2c1 :
Resp: n

Req: Call for entry S=C=NCc1ccccc1 :
Resp: y

Req: Call for entry CN(C)C(=O)[C@H]1CCC2(CCNCC2)CO1 :
Resp: n

Req: Call for entry COc1ccc(OC(=O)N(C)C[C@@H]2OCc3ccccc3-c3c(n(C)c4ccccc34)C(=O)N([C@@H](C)CO)C[C@@H]2C)cc1 :
Resp: n

Req: Call for entry CCN1CCN(c2nc([N+](=O)[O-])nn2C)CC1 :
Resp: n

Req: Call for entry CN(C)C(=O)Oc1cccc([N+](C)(C)C)c1.COS(=O)(=O)[O-] :
Resp: n

###

- Tested on: HepG2
- assayExplanation: cytotoxicity call (relative viability < 0.9)
- particulars: 10 µM
Screen size: about 39,000 compounds; about 3,300 (8.5%) were called active. For the sample, actives were picked, then their nearest neighbours and some compounds at random.
measuredAttribute: cytotoxicity call

{"molecule": "CCC(CO)NC(=O)C1C=C2c3cccc4c3c(cn4C)CC2N(C)C1.O=C(O)C=CC(=O)O (stereo not given)", "cytotoxicity call": "inactive"}
{"molecule": "CC1(C)C(=O)C=CC2(C)C1=C(O)C(=O)C1(C)C2CCC2(C)C(c3ccoc3)CC3OC321 (stereo not given)", "cytotoxicity call": "active"}
{"molecule": "CN1C(=O)N(C)C2C1N(C)C(=O)N2C (stereo not given)", "cytotoxicity call": "inactive"}
{"molecule": "C[C@H](CO)N1C[C@H](C)[C@H](CN(C)C(=O)Oc2ccccc2)OCc2ccccc2-c2c(n(C)c3ccccc23)C1=O", "cytotoxicity call": "inactive"}
{"molecule": "CCC(=O)CCCCC[C@@H]1NC(=O)[C@H]2CCCCN2C(=O)[C@H]([C@@H](C)CC)NC(=O)[C@H](Cc2cn(OC)c3ccccc23)NC1=O", "cytotoxicity call": "active"}
{"molecule": "CN1CCO[C@H]2CN(c3ncccn3)C[C@@H]21", "cytotoxicity call": "inactive"}
{"molecule": "O[C@@]12CCCC[C@@H]1CNCC2", "cytotoxicity call": "inactive"}
{"molecule": "CCN1C[C@H]2C[C@H](C(=O)NCC3CC3)[C@@H](C1)O2", "cytotoxicity call": "inactive"}
{"molecule": "Oc1ccc(N2CCNCC2)cc1", "cytotoxicity call": "inactive"}
{"molecule": "OC[C@H]1O[C@@H](Oc2c[nH]c3ccc(Br)c(Cl)c23)[C@H](O)[C@@H](O)[C@H]1O", "cytotoxicity call": "inactive"}

Req: I am curious: what cytotoxicity call value has been reported for C[C@@H]1CN([C@H](C)CO)C(=O)CCCn2nncc2CO[C@H]1CN(C)C(=O)Oc1ccc2ccccc2c1 ?
Resp: inactive

Req: I am curious: what cytotoxicity call value has been reported for Nc1ncnc2c1ncn2CCOCP(=O)(O)O ?
Resp: inactive

Req: I am curious: what cytotoxicity call value has been reported for Cc1ccc(C[C@H]2CCCN2)cc1C ?
Resp: inactive

Req: I am curious: what cytotoxicity call value has been reported for CCC(=O)CCCCC[C@@H]1NC(=O)[C@H]2CCCCN2C(=O)[C@H]([C@H](C)CC)NC(=O)[C@H](Cc2cn(OC)c3ccccc23)NC1=O ?
Resp: active

Req: I am curious: what cytotoxicity call value has been reported for CN(C)[C@@H](CN)c1cccc(C(F)(F)F)c1 ?
Resp: inactive

Req: I am curious: what cytotoxicity call value has been reported for Cn1cc(NC(=O)c2cc(NC(=O)CNC(=N)N)cn2C)cc1C(=O)NCCC(=N)N ?
Resp: inactive

Req: I am curious: what cytotoxicity call value has been reported for CCCCCCCCCc1ccc(O)cc1 ?
Resp: active

Req: I am curious: what cytotoxicity call value has been reported for CC(=O)c1c(O)cc(C)oc1=O ?
Resp: inactive

Value source: the antibiotic and cytotoxicity screens of Wong et al. (2023)
